assay: High humidity test (stability study); format: physicochemical; details: 25° C., 10 days
REPORTED_METRIC: Total impurity (%)
Give just the numeric value; % need not be written.

Examples with their reported Total impurity (%) follow.
{"columns": ["SUBSTANCE_SMILES", "UNIT_INFO", "ASSAY_RESULT"],
 "data": [
  ["COC(=O)C1=C(CN2CCOC[C@H]2C(=O)O)NC(c2nccs2)=N[C@H]1c1ccc(F)cc1Cl", "%", 2.58],
  ["Br.COC(=O)C1=C(CN2CCOC[C@H]2C(=O)O)N=C(c2nccs2)N[C@H]1c1ccc(F)cc1Cl", "%", 0.36],
  ["COC(=O)C1=C(CN2CCOC[C@H]2C(=O)O)N=C(c2nccs2)N[C@H]1c1ccc(F)cc1Cl.O=C(O)C(O)C(O)C(=O)O", "%", 0.18]
]}

Data request: // lookup Total impurity (%) for COC(=O)C1=C(CN2CCOC[C@H]2C(=O)O)N=C(c2nccs2)N[C@H]1c1ccc(F)cc1Cl.Cl
Data returned: 0.41

###

assay: High temperature test (stability study); assay type: physicochemical; settings: 0 days

{"columns": ["SUBSTANCE_SMILES", "Appearance"],
 "data": [
  ["Br.COC(=O)C1=C(CN2CCOC[C@H]2C(=O)O)N=C(c2nccs2)N[C@H]1c1ccc(F)cc1Cl", "yellow"],
  ["COC(=O)C1=C(CN2CCOC[C@H]2C(=O)O)N=C(c2nccs2)N[C@H]1c1ccc(F)cc1Cl.Cl", "yellow"],
  ["COC(=O)C1=C(CN2CCOC[C@H]2C(=O)O)N=C(c2nccs2)N[C@H]1c1ccc(F)cc1Cl.O=C(O)C(O)C(O)C(=O)O", "yellow"]
]}

###

experiment: Illumination test (stability study); assay type: physicochemical; conditions: 5 days
REPORTED_METRIC: Appearance

{"columns": ["SUBSTANCE_SMILES", "REPORTED_METRIC", "ASSAY_RESULT"],
 "data": [
  ["Br.COC(=O)C1=C(CN2CCOC[C@H]2C(=O)O)N=C(c2nccs2)N[C@H]1c1ccc(F)cc1Cl", "Appearance", "yellow"],
  ["COC(=O)C1=C(CN2CCOC[C@H]2C(=O)O)N=C(c2nccs2)N[C@H]1c1ccc(F)cc1Cl.O=C(O)C(O)C(O)C(=O)O", "Appearance", "yellow"],
  ["COC(=O)C1=C(CN2CCOC[C@H]2C(=O)O)N=C(c2nccs2)N[C@H]1c1ccc(F)cc1Cl.Cl", "Appearance", "yellow"]
]}

###

test: High temperature test (stability study); format: physicochemical; conditions: High temperature, 60° C., 10 days
REPORTED_METRIC: Total impurity (%)
Give just the numeric value; % need not be written.

{"columns": ["SUBSTANCE_SMILES", "Total impurity (%)"],
 "data": [
  ["COC(=O)C1=C(CN2CCOC[C@H]2C(=O)O)NC(c2nccs2)=N[C@H]1c1ccc(F)cc1Cl", 4.35],
  ["Br.COC(=O)C1=C(CN2CCOC[C@H]2C(=O)O)N=C(c2nccs2)N[C@H]1c1ccc(F)cc1Cl", 0.37],
  ["COC(=O)C1=C(CN2CCOC[C@H]2C(=O)O)N=C(c2nccs2)N[C@H]1c1ccc(F)cc1Cl.O=C(O)C(O)C(O)C(=O)O", 0.16]
]}

Shifting focus to the compound that follows.
Data request: // lookup Total impurity (%) for COC(=O)C1=C(CN2CCOC[C@H]2C(=O)O)N=C(c2nccs2)N[C@H]1c1ccc(F)cc1Cl.Cl
Data returned: 0.57

###

experiment: High humidity test (stability study); assay type: physicochemical; details: 25° C., 10 days
REPORTED_METRIC: Purity (%)
Give just the numeric value; % need not be written.

Examples with their reported Purity (%) follow.
{"columns": ["SUBSTANCE_SMILES", "UNIT_INFO", "Purity (%)"],
 "data": [
  ["COC(=O)C1=C(CN2CCOC[C@H]2C(=O)O)N=C(c2nccs2)N[C@H]1c1ccc(F)cc1Cl.O=C(O)C(O)C(O)C(=O)O", "%", 99.82],
  ["Br.COC(=O)C1=C(CN2CCOC[C@H]2C(=O)O)N=C(c2nccs2)N[C@H]1c1ccc(F)cc1Cl", "%", 99.64],
  ["COC(=O)C1=C(CN2CCOC[C@H]2C(=O)O)NC(c2nccs2)=N[C@H]1c1ccc(F)cc1Cl", "%", 97.42]
]}

Data request: // lookup Purity (%) for COC(=O)C1=C(CN2CCOC[C@H]2C(=O)O)N=C(c2nccs2)N[C@H]1c1ccc(F)cc1Cl.Cl
Data returned: 99.59

###

Test: Illumination test (stability study)
Format: physicochemical
Settings: 13 days
Protocol: Illumination test: an appropriate amount of sample was put in a weighing bottle in the form of a thin layer of ≤5 mm, under a […] for 13 days. Appearance, impurity and purity of the samples were tested respectively at the 5th and 13th day. […]
REPORTED_METRIC: Purity (%)

Examples with their reported Purity (%) follow.
{"columns": ["SUBSTANCE_SMILES", "Purity (%)"],
 "data": [
  ["Br.COC(=O)C1=C(CN2CCOC[C@H]2C(=O)O)N=C(c2nccs2)N[C@H]1c1ccc(F)cc1Cl", "96.06%"],
  ["COC(=O)C1=C(CN2CCOC[C@H]2C(=O)O)N=C(c2nccs2)N[C@H]1c1ccc(F)cc1Cl.O=C(O)C(O)C(O)C(=O)O", "99.84%"],
  ["COC(=O)C1=C(CN2CCOC[C@H]2C(=O)O)N=C(c2nccs2)N[C@H]1c1ccc(F)cc1Cl.Cl", "97.47%"]
]}

Data request: // lookup Purity (%) for COC(=O)C1=C(CN2CCOC[C@H]2C(=O)O)NC(c2nccs2)=N[C@H]1c1ccc(F)cc1Cl
Data returned: 90.56%

###

Test: High temperature test (stability study)
Assay type: physicochemical
Conditions: High temperature, 60° C., 5 days
Experimental: High temperature test: an appropriate amount of sample was put in a weighing bottle in the form of a thin layer of ≤5 mm, under a temperature of 60° C. for 10 days. Appearance, impurity and purity of the samples were tested respectively at the 5th and 10th day. […] If the sample has no significant change occurred at 60° C., it is not necessary to do the experiment under the condition of 40° C. […]
Listed below: Purity (%) values for each entry.
Give just the numeric value; % need not be written.

Examples with their reported Purity (%) follow.
{"columns": ["SUBSTANCE_SMILES", "UNIT_INFO", "Purity (%)"],
 "data": [
  ["COC(=O)C1=C(CN2CCOC[C@H]2C(=O)O)N=C(c2nccs2)N[C@H]1c1ccc(F)cc1Cl.O=C(O)C(O)C(O)C(=O)O", "%", 99.83],
  ["COC(=O)C1=C(CN2CCOC[C@H]2C(=O)O)NC(c2nccs2)=N[C@H]1c1ccc(F)cc1Cl", "%", 96.99],
  ["COC(=O)C1=C(CN2CCOC[C@H]2C(=O)O)N=C(c2nccs2)N[C@H]1c1ccc(F)cc1Cl.Cl", "%", 99.63]
]}

Data request: // lookup Purity (%) for Br.COC(=O)C1=C(CN2CCOC[C@H]2C(=O)O)N=C(c2nccs2)N[C@H]1c1ccc(F)cc1Cl
Data returned: 99.69

###

experiment: Illumination test (stability study); type: physicochemical; conditions: 5 days
Listed below: Purity (%) values for each entry.
Report the figure along with its unit, number first.

{"columns": ["SUBSTANCE_SMILES", "Purity (%)"],
 "data": [
  ["Br.COC(=O)C1=C(CN2CCOC[C@H]2C(=O)O)N=C(c2nccs2)N[C@H]1c1ccc(F)cc1Cl", "97.63%"],
  ["COC(=O)C1=C(CN2CCOC[C@H]2C(=O)O)N=C(c2nccs2)N[C@H]1c1ccc(F)cc1Cl.O=C(O)C(O)C(O)C(=O)O", "99.86%"],
  ["COC(=O)C1=C(CN2CCOC[C@H]2C(=O)O)NC(c2nccs2)=N[C@H]1c1ccc(F)cc1Cl", "93.72%"]
]}

Shifting focus to the molecule that follows.
Data request: // lookup Purity (%) for COC(=O)C1=C(CN2CCOC[C@H]2C(=O)O)N=C(c2nccs2)N[C@H]1c1ccc(F)cc1Cl.Cl
Data returned: 97.59%

###

assay: High humidity test (stability study); assay type: physicochemical; conditions: 25° C., 10 days

{"columns": ["SUBSTANCE_SMILES", "Appearance"],
 "data": [
  ["Br.COC(=O)C1=C(CN2CCOC[C@H]2C(=O)O)N=C(c2nccs2)N[C@H]1c1ccc(F)cc1Cl", "yellow"],
  ["COC(=O)C1=C(CN2CCOC[C@H]2C(=O)O)N=C(c2nccs2)N[C@H]1c1ccc(F)cc1Cl.O=C(O)C(O)C(O)C(=O)O", "yellow"],
  ["COC(=O)C1=C(CN2CCOC[C@H]2C(=O)O)N=C(c2nccs2)N[C@H]1c1ccc(F)cc1Cl.Cl", "yellow"]
]}
